# credit: patent US10112954B2

# assayed system: Flt1 (Homo sapiens, UniProt P17948)
# Construct: purchased Upstate Company
# test summary: Inhibition of Flt1 kinase
# Assay type: biochemical
# recorded conditions: Table 3

| compound structure | IC50 |
| --- | --- |
| COc1cc(OC)c(Cl)c(NC(=O)c2csc3c(NC(=O)C4CC4)ncnc23)c1Cl | > 1000 nM |

###

# assayed system: Ret (Homo sapiens, UniProt P07949)
# Construct: purchased Upstate Company
# Sequence (P07949 29-1114, species assumed): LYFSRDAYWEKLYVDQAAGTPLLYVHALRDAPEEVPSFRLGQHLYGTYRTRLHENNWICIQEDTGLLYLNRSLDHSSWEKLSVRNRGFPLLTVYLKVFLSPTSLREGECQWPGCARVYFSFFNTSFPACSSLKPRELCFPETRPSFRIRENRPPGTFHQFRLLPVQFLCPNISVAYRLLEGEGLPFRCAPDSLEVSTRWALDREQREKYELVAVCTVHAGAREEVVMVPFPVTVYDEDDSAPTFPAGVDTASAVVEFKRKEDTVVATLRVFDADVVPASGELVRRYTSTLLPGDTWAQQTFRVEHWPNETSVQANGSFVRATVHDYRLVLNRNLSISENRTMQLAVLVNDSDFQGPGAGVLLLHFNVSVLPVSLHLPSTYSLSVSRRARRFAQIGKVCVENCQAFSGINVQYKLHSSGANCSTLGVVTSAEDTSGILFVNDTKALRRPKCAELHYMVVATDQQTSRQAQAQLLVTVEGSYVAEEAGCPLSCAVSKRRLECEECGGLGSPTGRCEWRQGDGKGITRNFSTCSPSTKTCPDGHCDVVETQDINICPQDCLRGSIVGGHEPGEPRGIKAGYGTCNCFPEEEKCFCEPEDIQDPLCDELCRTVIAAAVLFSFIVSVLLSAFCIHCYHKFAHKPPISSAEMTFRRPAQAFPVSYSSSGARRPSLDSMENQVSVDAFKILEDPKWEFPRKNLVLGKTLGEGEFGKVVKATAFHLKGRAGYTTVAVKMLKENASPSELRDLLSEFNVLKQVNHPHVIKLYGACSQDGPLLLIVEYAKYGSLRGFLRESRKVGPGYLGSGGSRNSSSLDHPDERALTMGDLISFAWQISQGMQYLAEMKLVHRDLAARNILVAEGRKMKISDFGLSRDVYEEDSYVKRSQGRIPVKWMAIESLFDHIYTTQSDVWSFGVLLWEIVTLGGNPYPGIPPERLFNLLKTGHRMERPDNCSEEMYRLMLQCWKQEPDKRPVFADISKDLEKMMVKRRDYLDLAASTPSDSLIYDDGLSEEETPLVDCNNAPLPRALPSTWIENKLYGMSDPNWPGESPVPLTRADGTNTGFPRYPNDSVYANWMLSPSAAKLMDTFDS
# test summary: Inhibition of Ret kinase
# Assay type: biochemical
# recorded conditions: Table 3
attribute measured: IC50

| compound structure | measured |
| --- | --- |
| COc1cc(OC)c(Cl)c(NC(=O)c2csc3c(NC(=O)C4CC4)ncnc23)c1Cl | > 1000 nM |

###

# assayed system: Kit (Homo sapiens, UniProt P10721)
# Construct: purchased Upstate Company
# test summary: Inhibition of Kit kinase
# Format: biochemical
# recorded conditions: Table 3

| molecule | IC50 |
| --- | --- |
| COc1cc(OC)c(Cl)c(NC(=O)c2csc3c(NC(=O)C4CC4)ncnc23)c1Cl [Example 177] | > 1000 nM |

###

# assayed system: Lyn (Homo sapiens)
# Construct: purchased Upstate Company
# test summary: Inhibition of Lyn kinase (Profluor kit procedure)
# Format: biochemical
# recorded conditions: Table 3

| compound structure | IC50 |
| --- | --- |
| COc1cc(OC)c(Cl)c(NC(=O)c2csc3c(NC(=O)C4CC4)ncnc23)c1Cl | > 1000 nM |

###

# assayed system: PDGFRα (Homo sapiens, UniProt P16234)
# Construct: purchased Upstate Company
# test summary: Inhibition of PDGFRα kinase
# Type: biochemical
# recorded conditions: Table 3

| compound | assayed system | IC50 |
| --- | --- | --- |
| COc1cc(OC)c(Cl)c(NC(=O)c2csc3c(NC(=O)C4CC4)ncnc23)c1Cl [Example 177] | PDGFRα (Homo sapiens, UniProt P16234) | > 1000 nM |

###

# assayed system: Src (Homo sapiens)
# Construct: purchased Upstate Company
# Sequence (P12931 whole entry, species assumed): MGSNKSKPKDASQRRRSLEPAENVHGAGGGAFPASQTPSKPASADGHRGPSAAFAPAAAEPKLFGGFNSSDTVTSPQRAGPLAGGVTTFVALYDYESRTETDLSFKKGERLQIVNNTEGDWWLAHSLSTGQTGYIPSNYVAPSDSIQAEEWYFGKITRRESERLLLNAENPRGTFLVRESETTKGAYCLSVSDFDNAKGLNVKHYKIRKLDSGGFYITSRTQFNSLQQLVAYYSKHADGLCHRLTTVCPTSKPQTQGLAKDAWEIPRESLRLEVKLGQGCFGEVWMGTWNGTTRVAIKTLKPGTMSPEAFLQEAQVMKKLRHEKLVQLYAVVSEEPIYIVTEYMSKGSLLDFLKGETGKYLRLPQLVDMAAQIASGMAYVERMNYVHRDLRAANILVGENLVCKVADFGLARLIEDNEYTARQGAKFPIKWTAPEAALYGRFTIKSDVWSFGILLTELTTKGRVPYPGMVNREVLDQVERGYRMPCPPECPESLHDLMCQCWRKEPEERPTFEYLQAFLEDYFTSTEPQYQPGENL
# test summary: Inhibition of Src kinase (Profluor Src kinase assay kit)
# Assay type: biochemical
# recorded conditions: Table 3

| compound structure | assayed system | IC50 |
| --- | --- | --- |
| COc1cc(OC)c(Cl)c(NC(=O)c2csc3c(NC(=O)C4CC4)ncnc23)c1Cl | Src (Homo sapiens) | > 1000 nM |

###

# assayed system: Her2 (Homo sapiens, UniProt P04626)
# Construct: purchased Upstate Company
# Sequence (P04626 23-1255, species assumed): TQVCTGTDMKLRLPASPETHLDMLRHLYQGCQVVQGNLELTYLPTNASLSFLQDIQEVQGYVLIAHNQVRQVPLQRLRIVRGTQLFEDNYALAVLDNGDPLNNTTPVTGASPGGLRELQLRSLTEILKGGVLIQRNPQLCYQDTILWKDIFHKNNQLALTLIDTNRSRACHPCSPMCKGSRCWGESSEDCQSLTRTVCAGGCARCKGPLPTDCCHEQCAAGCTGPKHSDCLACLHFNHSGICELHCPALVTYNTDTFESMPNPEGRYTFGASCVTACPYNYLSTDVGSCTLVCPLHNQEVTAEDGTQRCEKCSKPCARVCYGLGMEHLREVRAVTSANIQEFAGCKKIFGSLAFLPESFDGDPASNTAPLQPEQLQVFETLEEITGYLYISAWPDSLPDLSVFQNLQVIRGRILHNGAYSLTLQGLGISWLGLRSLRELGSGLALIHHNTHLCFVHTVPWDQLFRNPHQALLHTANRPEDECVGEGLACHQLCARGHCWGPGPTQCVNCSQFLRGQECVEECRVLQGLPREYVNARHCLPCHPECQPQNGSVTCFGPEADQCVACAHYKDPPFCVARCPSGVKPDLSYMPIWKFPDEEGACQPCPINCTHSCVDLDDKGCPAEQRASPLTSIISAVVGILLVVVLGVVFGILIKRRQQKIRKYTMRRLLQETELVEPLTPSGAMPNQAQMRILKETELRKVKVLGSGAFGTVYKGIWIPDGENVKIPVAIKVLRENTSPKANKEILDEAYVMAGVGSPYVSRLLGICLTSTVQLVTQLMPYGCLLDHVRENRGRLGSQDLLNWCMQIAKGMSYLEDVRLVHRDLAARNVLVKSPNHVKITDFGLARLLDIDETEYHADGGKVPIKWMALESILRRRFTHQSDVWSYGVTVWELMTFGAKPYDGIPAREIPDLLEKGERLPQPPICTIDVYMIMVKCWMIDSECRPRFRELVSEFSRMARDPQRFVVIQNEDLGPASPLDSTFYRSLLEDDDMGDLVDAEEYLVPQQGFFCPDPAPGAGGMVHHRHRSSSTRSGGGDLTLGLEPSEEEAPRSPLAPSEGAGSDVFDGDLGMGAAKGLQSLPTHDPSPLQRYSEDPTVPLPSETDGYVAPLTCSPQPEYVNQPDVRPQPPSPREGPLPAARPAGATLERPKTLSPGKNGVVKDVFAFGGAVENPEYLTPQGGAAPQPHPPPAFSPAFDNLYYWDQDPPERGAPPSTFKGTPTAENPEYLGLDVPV
# test summary: Inhibition of Her2 kinase
# Format: biochemical
# recorded conditions: Table 3

| compound structure | assayed system | IC50 |
| --- | --- | --- |
| COc1cc(OC)c(Cl)c(NC(=O)c2csc3c(NC(=O)C4CC4)ncnc23)c1Cl | Her2 (Homo sapiens, UniProt P04626) | > 1000 nM |

###

# assayed system: FGFR3 (Homo sapiens, UniProt P22607)
# Construct: purchased Upstate Company
# test summary: Inhibition of FGFR3 kinase (fluorescence polarization kinase assay)
# Assay type: biochemical
# recorded conditions: Table 3; read-out: IC50 (nM) FGFR3

| molecule | IC50 |
| --- | --- |
| COc1cc(OC)c(Cl)c(NC(=O)c2csc3c(NC(=O)C4CC4)ncnc23)c1Cl [Example 177] | < 100 nM |

###

# assayed system: Met (Homo sapiens, UniProt P08581)
# Construct: purchased Upstate Company
# test summary: Inhibition of Met kinase
# Format: biochemical
# recorded conditions: Table 3

| compound structure | IC50 |
| --- | --- |
| COc1cc(OC)c(Cl)c(NC(=O)c2csc3c(NC(=O)C4CC4)ncnc23)c1Cl | > 1000 nM |

###

# assayed system: Fyn (Homo sapiens)
# Construct: purchased Upstate Company
# test summary: Inhibition of Fyn kinase (Profluor kit procedure)
# Format: biochemical
# recorded conditions: Table 3

| compound structure | IC50 |
| --- | --- |
| COc1cc(OC)c(Cl)c(NC(=O)c2csc3c(NC(=O)C4CC4)ncnc23)c1Cl | > 1000 nM |

###

# assayed system: EGFR (Homo sapiens)
# Construct: purchased Upstate Company
# Sequence (P00533 25-1210, species assumed): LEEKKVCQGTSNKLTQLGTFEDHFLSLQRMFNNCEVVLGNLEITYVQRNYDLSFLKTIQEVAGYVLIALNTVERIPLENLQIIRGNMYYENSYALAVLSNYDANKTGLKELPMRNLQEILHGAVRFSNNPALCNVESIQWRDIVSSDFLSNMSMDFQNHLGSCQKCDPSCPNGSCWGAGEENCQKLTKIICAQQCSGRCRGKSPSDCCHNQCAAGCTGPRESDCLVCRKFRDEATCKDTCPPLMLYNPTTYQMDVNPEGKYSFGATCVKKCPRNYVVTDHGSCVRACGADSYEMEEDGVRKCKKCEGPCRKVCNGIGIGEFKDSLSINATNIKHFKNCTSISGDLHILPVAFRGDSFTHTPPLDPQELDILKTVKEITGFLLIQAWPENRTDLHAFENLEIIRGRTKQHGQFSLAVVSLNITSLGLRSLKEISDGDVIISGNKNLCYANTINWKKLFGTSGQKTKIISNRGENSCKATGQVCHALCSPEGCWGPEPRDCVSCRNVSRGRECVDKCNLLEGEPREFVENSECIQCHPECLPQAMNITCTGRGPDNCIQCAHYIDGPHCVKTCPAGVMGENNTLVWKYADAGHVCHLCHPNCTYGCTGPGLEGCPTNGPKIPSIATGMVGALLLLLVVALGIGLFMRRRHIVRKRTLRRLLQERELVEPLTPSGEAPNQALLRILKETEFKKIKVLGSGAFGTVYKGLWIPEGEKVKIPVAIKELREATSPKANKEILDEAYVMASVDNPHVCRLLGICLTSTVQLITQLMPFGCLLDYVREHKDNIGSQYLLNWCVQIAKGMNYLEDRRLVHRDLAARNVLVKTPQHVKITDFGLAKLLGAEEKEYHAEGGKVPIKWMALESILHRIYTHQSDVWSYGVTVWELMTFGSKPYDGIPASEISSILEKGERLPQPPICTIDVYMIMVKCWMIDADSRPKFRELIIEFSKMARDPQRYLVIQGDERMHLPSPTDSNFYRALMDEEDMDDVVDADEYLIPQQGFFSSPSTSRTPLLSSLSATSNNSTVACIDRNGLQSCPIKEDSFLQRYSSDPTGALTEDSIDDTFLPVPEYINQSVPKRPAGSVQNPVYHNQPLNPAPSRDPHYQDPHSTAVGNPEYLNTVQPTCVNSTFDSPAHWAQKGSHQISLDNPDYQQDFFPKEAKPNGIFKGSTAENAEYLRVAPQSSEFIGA
# test summary: Inhibition of EGFR (Her1) kinase
# Type: biochemical
# recorded conditions: Table 3
attribute measured: IC50

| compound | measured |
| --- | --- |
| COc1cc(OC)c(Cl)c(NC(=O)c2csc3c(NC(=O)C4CC4)ncnc23)c1Cl [Example 177] | > 1000 nM |

###

IC50 values, listed per item
# assayed system: FGFR3 (Homo sapiens)
# Construct: purchased Upstate Company
# test summary: Inhibition of FGFR3 kinase (fluorescence polarization kinase assay)
# Type: biochemical
# recorded conditions: Table 2, class symbols; read-out: FGFR3 IC50

| compound structure | IC50 |
| --- | --- |
| CCN1CCN(CCCNc2ncnc3c(C(=O)Nc4c(Cl)c(OC)cc(OC)c4Cl)csc23)CC1 | 1000 to 5000 nM |
| COc1cc(OC)c(Cl)c(NC(=O)c2csc3c(Nc4ccc5cn[nH]c5c4)ncnc23)c1Cl | 500 to 1000 nM |
| COc1cc(OC)c(Cl)c(NC(=O)c2csc3c(Nc4cc(OCCN(C)C)ncn4)ncnc23)c1Cl | 100 to 500 nM |
| COc1cc(NC(=O)c2csc3c(N)ncnc23)c2ccoc2c1 | 1000 to 5000 nM |
| CCN(CC)Cc1cccc(Nc2ncnc3c(C(=O)Nc4c(Cl)c(OC)cc(OC)c4Cl)csc23)n1 | 1000 to 5000 nM |
| COc1cc(OC)c(Cl)c(NC(=O)c2csc3c(Nc4cc(CN5CCSC5)ccn4)ncnc23)c1Cl | 1 to 100 nM |
| COc1cc(OC)c(Cl)c(NC(=O)c2csc3c(Nc4ccc(C(=O)NN5CCN(C)CC5)cn4)ncnc23)c1Cl | 1 to 100 nM |
| COc1cc(OC)c(Cl)c(NC(=O)c2csc3c(NS(C)(=O)=O)ncnc23)c1Cl | 1000 to 5000 nM |

###

# assayed system: Fms (Homo sapiens, UniProt P07333)
# Construct: purchased Upstate Company
# Sequence (P07333 20-972, species assumed): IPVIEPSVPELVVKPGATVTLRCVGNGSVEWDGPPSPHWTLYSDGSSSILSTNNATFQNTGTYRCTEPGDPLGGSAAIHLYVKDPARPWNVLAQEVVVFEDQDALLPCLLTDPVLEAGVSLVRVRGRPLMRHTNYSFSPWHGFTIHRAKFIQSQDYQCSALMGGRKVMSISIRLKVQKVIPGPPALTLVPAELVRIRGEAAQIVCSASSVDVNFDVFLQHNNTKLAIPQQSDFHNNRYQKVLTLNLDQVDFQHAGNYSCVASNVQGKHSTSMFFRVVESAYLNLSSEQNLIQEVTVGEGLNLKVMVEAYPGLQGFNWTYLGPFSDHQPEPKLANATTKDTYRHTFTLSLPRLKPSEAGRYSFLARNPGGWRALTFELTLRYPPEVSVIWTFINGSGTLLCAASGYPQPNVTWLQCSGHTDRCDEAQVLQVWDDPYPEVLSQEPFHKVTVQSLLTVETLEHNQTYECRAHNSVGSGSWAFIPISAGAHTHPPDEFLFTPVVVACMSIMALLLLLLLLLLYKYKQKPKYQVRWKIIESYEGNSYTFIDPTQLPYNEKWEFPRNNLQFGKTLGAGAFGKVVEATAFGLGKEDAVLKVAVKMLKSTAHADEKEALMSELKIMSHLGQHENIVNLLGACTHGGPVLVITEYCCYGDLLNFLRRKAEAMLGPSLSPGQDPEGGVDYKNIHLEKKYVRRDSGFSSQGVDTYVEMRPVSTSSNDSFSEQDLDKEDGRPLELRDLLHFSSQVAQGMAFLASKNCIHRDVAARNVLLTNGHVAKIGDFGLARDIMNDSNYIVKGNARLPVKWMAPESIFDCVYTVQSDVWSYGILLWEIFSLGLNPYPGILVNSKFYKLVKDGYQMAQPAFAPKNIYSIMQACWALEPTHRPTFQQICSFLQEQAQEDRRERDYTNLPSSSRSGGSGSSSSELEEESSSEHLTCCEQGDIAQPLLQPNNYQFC
# test summary: Inhibition of Fms kinase
# Type: biochemical
# recorded conditions: Table 3
attribute measured: IC50

| compound structure | attribute measured | measured |
| --- | --- | --- |
| COc1cc(OC)c(Cl)c(NC(=O)c2csc3c(NC(=O)C4CC4)ncnc23)c1Cl | IC50 | < 200 nM |

###

# assayed system: FGFR3 (Homo sapiens, UniProt P22607)
# Construct: purchased Upstate Company
# test summary: Inhibition of FGFR3 kinase (fluorescence polarization kinase assay)
# Assay type: biochemical
# recorded conditions: Table 2, class symbols; read-out: FGFR3 IC50
attribute measured: IC50

| molecule | assayed system | attribute measured | measured |
| --- | --- | --- | --- |
| CCN(CC)C(=O)Cc1ccnc(Nc2ncnc3c(C(=O)Nc4c(Cl)c(OC)cc(OC)c4Cl)csc23)c1 | FGFR3 (Homo sapiens, UniProt P22607) | IC50 | 1 to 100 nM |
| COc1cc(OC)c(Cl)c(NC(=O)c2csc3c(Nc4ccc(CN5CCCC(C(F)(F)F)C5)cn4)ncnc23)c1Cl (centres unmarked) | FGFR3 (Homo sapiens, UniProt P22607) | IC50 | 1000 to 5000 nM |
| CCN1CCN(c2ccc(C(=O)Nc3ncnc4c(C(=O)Nc5c(Cl)c(OC)cc(OC)c5Cl)csc34)cc2)CC1 | FGFR3 (Homo sapiens, UniProt P22607) | IC50 | 100 to 500 nM |
| COc1cc(OC)c(Cl)c(NC(=O)c2csc3c(NC4CC4)ncnc23)c1Cl | FGFR3 (Homo sapiens, UniProt P22607) | IC50 | 1 to 100 nM |
| COc1cc(OC)c(Cl)c(NC(=O)c2csc3c(Nc4ccc(CN5CCOCC5)cn4)ncnc23)c1Cl | FGFR3 (Homo sapiens, UniProt P22607) | IC50 | 1 to 100 nM |
| COc1cc(OC)c(Cl)c(NC(=O)c2csc3c(Nc4nc5ccc(C)cc5s4)ncnc23)c1Cl | FGFR3 (Homo sapiens, UniProt P22607) | IC50 | 500 to 1000 nM |
| COc1cc(NC(=O)c2csc3c(Nc4ccccc4)ncnc23)c2ccoc2c1 | FGFR3 (Homo sapiens, UniProt P22607) | IC50 | 1000 to 5000 nM |
| CCOC(=O)NC(=S)Nc1ncnc2c(C(=O)Nc3c(Cl)c(OC)cc(OC)c3Cl)csc12 | FGFR3 (Homo sapiens, UniProt P22607) | IC50 | 500 to 1000 nM |
| CCN(CC)CCCCNc1ncnc2c(C(=O)Nc3c(Cl)c(OC)c(Br)c(OC)c3Cl)csc12 | FGFR3 (Homo sapiens, UniProt P22607) | IC50 | 1000 to 5000 nM |
| COc1cc(OC)c(Cl)c(NC(=O)c2csc3c(Nc4ccc(NC(=O)CN(C)C)cn4)ncnc23)c1Cl | FGFR3 (Homo sapiens, UniProt P22607) | IC50 | 1 to 100 nM |
| COc1cc(OC)c(Cl)c(NC(=O)c2csc3c(Nc4ccc(C(N)=O)cn4)ncnc23)c1Cl | FGFR3 (Homo sapiens, UniProt P22607) | IC50 | 1 to 100 nM |
| COc1cc(OC)c(Cl)c(NC(=O)c2csc3c(Nc4ccc(CC(=O)N5CCOCC5)cn4)ncnc23)c1Cl | FGFR3 (Homo sapiens, UniProt P22607) | IC50 | 1 to 100 nM |
| COc1cc(OC)c(Cl)c(NC(=O)c2csc3c(NCCNc4ccccc4)ncnc23)c1Cl | FGFR3 (Homo sapiens, UniProt P22607) | IC50 | 1000 to 5000 nM |
| CCN1CCN(c2cccc(Nc3ncnc4c(C(=O)Nc5c(Cl)c(OC)cc(OC)c5Cl)csc34)c2)CC1 | FGFR3 (Homo sapiens, UniProt P22607) | IC50 | 100 to 500 nM |
| COc1cc(OC)c(Cl)c(NC(=O)c2csc3c(Nc4cc(C)ccn4)ncnc23)c1Cl | FGFR3 (Homo sapiens, UniProt P22607) | IC50 | 1 to 100 nM |
| COc1c(Cl)c(NC(=O)c2csc3c(Nc4ccc(F)c(Cl)c4)ncnc23)c(Cl)c(OC)c1Br | FGFR3 (Homo sapiens, UniProt P22607) | IC50 | 1000 to 5000 nM |
| CCN1CCN(Cc2ccc(Nc3ncnc4c(C(=O)Nc5c(Cl)c(OC)cc(OC)c5Cl)csc34)nc2)CC1 | FGFR3 (Homo sapiens, UniProt P22607) | IC50 | 1 to 100 nM |
